Origin of the recorded values: patent US20240059789A1

test_target: T1, Avi-6xHis-GS-cyno PSMA ECD (PSMW1) (Macaca fascicularis, UniProt Q04609 48-750 (human entry))
T1 construct: also called PSMW1.009; cy PSMA
T1 chain: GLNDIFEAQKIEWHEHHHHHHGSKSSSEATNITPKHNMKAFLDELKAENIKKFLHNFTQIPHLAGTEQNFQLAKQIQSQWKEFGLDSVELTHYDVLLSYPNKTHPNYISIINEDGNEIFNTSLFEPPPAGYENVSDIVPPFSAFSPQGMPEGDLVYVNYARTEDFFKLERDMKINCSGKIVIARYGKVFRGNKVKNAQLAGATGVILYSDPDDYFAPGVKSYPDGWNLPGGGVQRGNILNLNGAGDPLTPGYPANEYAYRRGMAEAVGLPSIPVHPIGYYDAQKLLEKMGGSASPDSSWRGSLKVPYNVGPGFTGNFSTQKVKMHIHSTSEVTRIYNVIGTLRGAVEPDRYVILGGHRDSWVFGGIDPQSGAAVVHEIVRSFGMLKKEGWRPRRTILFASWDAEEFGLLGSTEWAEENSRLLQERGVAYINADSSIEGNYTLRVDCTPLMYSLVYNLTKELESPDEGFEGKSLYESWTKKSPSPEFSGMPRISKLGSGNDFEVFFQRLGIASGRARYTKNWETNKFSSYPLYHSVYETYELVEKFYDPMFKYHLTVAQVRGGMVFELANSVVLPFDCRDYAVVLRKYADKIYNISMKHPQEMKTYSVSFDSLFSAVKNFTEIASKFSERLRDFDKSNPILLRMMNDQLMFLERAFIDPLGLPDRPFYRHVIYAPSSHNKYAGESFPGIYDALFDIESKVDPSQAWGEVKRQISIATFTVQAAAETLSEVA
assay_method_text: SPR Biacore 8K, mAb captured by anti-Fc, antigen in solution
recorded_metric: Kd (nM)

[[record]]
binder = "PSMB899 (antibody, human IgG1, lambda, L234A L235A, V domains shown) VH: EVQLVESGGGLVQPGGSLRLSCTASGFIFSSYAMSWVRQAPGKGLEWVSAISGGYGAPYYADTVKGRFTISRDNSKNTLYLQMNSLRAEDTAVYYCAKDGVGATPYYFDDWGQGILVTVSS VL: QSVLTQPPSVSAAPGQKVTISCSGSSSNIGNNYVSWYQQLPGTAPKLLIFDNNKRPSGIPDRFSGSKSGTSATLGITGLQTGDEADYYCGTWDSSLSAYVFGTGTKVTVLG"
meas_value = 1.47

[[record]]
binder = "PSMB896 (antibody, human IgG1, lambda, L234A L235A, V domains shown) VH: EVQLVESGGGLVQPGGSLRLSCAASGFTFSSYAMSWVRQAPGKGLEWVSAISGGIGSTYYADSVKGRFTISRDNSKNTLWLQMNSLRAEDTAVYYCAKDGVGATPYYFDYWGQGTLVTVSS VL: QSVLTQPPSVSAAPGQKVTISCSGSSSNIGINYVSWYQQLPGTAPKLLIYDNNKRPSGIPDRFSGSKSGTSATLGITGLQTGDEADYYCGTWDSSLSAVVFGGGTKLTVLG"
meas_value = 0.658

[[record]]
binder = "PSMB892 (antibody, human IgG1, lambda, L234A L235A, V domains shown) VH: EVQLVESGGGVVQPGRSLRLSCAASGFTFITYGMHWVRQAPGKGLEWVAVVSFDESNKYYADSVKGRFTISRDNSKNTLYLQMNSLRAEDTAVYYCARALRDGNNWDYFNGMDVWGQGTTVTVSS VL: QSVLTQPPSVSGAPGQRVTISCTGSSSNIGADYDVHWYQHLPGTAPKLLIYGNSNRPSGVPDRFSGSKSGTSASLAITGLQAEDETDYYCQSYDSSLSGWVFGGGTKLTVLG"
meas_value = 5.67

